Recorded LC retention time values for a group of compounds are listed next.
# Experimental details: RP, Thermo Scientific Hypersil GOLD, 1.9 µm, 40 °C, 0.4 mL/min; A: water + 0.1% formic acid, pH 3; B: acetonitrile + 0.1% formic acid, pH 3; gradient (min/%B) 0/0 1/0 11/100 13/100 14/0 16/0
# Test settings: stereoisomer not certain

# Compound, LC retention time [min]
measured = [
    ("CC(C)CC(O)C(=O)O (stereo unspecified) [2-Hydroxyisocaproic acid]", 6.31),
    ("CC(C)C(O)C(=O)O (stereo unspecified)", 4.13),
    ("N[C@@H](CCC(=O)O)C(=O)O", 0.65),
    ("CCCCCCCCCCCCCCCCCCOCC(O)COP(=O)([O-])OCC[N+](C)(C)C (stereo unspecified)", 10.4),
    ("Cn1cncc1CCN", 0.57),
    ("CCCCCCCCCC(=O)OC(CC(=O)[O-])C[N+](C)(C)C (stereo unspecified)", 7.63),
    ("O=C(O)Cc1cnc[nH]1 [4-IMIDAZOLEACETATE]", 0.67),
    ("O=C1CCNC(=O)N1 [DIHYDROURACIL]", 0.82),
    ("CC(=O)NCC(=O)O", 0.83),
    ("C[N+](C)(C)CCCC(=O)O", 0.67),
    ("NC(=O)NCCC(=O)O [UREIDOPROPIONATE]", 0.82),
]
